# target_or_test_system: BTK (Homo sapiens)
# protocol_details: BTK degradation, DC50 and Dmax of Table 1 (cell line not given)
# Type: cell-based
# Set-up: endogenous in cells
# settings: concentration giving 50% reduction of BTK expression level
Measured DC50 by item

Worked examples, 2 compounds total:
compound	reported_metric	value
Nc1ncnc2c1c(-c1ccc(Oc3ccccc3)cc1)nn2[C@@H]1CCCN(C2CCN(C(=O)N3CCN(CC4CCN(c5ccc6c(c5)CN(C5CCC(=O)NC5=O)C6=O)CC4)CC3)CC2)C1 (stereo partly drawn)	DC50	10 to 50 nM
Nc1ncnc2c1c(-c1ccc(Oc3ccccc3)cc1)nn2[C@@H]1CCCN(C2CCN(C(=O)N3CCN(c4ccc5c(c4)CN(C4CCC(=O)NC4=O)C5=O)CC3)CC2)C1 (stereo partly drawn)	DC50	> 50 nM

IN: Can you look up the measured DC50 of Nc1ncnc2c1c(-c1ccc(Oc3ccccc3)cc1)nn2C1CCN(C(=O)N2CCC(CC3CCN(c4ccc5c(c4)CN(C4CCC(=O)NC4=O)C5=O)CC3)CC2)CC1 (stereo not drawn) for me?
OUT: < 10 nM

====

# target_or_test_system: BTK (Homo sapiens, UniProt Q06187)
# Sequence (Q06187 whole entry): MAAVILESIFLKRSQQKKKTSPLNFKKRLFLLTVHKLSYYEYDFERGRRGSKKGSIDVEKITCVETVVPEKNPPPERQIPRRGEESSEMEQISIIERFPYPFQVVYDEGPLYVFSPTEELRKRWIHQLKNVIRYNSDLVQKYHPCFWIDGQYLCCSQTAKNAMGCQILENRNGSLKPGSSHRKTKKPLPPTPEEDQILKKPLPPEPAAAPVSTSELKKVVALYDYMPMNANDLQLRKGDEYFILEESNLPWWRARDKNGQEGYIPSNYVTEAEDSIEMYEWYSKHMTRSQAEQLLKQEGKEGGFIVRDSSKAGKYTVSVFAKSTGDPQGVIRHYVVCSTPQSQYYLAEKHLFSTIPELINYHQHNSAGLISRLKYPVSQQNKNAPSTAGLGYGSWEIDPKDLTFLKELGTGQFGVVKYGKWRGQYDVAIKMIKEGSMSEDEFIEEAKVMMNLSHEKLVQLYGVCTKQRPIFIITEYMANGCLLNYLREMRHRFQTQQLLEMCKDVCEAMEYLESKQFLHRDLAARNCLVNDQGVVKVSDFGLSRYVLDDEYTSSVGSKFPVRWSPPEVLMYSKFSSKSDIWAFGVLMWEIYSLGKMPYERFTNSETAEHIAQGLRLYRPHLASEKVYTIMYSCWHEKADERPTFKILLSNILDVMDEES
# protocol_details: Degradation of BTK protein in Namalwa cells (Western blot; DC50, Dmax)
Measured Dmax by item

compound	Dmax
NC(=O)c1c(-c2ccc(Oc3ccccc3)cc2)nn2c1NCCC2C1CCN(C(=O)N2CCN(CC3CCN(c4ccc5c(c4)CN(C4CCC(=O)NC4=O)C5=O)CC3)CC2)CC1 (stereo not shown)	> 90%
NC(=O)c1c(-c2ccc(Oc3ccccc3)cc2)nn2c1NCC[C@H]2C1CCN(C(=O)N2CCN(CCN3CCN(c4ccc5c(c4)C(=O)N(C4CCC(=O)NC4=O)C5=O)CC3)CC2)CC1 (stereo partly shown)	> 90%
NC(=O)c1c(-c2ccc(Oc3ccccc3)cc2)nn2c1NCC[C@H]2C1CCN(C(=O)N2CCC(CCN3CCC(c4ccc5c(c4)C(=O)N(C4CCC(=O)NC4=O)C5=O)CC3)CC2)CC1 (stereo partly shown)	> 75%
Nc1ncnc2c1c(-c1ccc(Oc3ccccc3)cc1)nn2C1CCN(C2CCN(C(=O)N3CCC(CCN4CCC(c5ccc6c(c5)CN(C5CCC(=O)NC5=O)C6=O)CC4)CC3)CC2)CC1 (stereo not shown)	> 90%
NC(=O)c1c(-c2ccc(Oc3ccccc3)cc2)nn2c1NCCC2C1CCN(C(=O)N2CCC(CC3CCN(c4ccc5c(c4)CN(C4CCC(=O)NC4=O)C5=O)CC3)CC2)CC1 (stereo not shown)	> 90%

IN: Can you look up the measured Dmax of NC(=O)c1c(-c2ccc(Oc3ccccc3)cc2)nn2c1NCCC2C1CCN(C2CCN(C(=O)N3CCC(N4CCC(c5ccc6c(c5)CN(C5CCC(=O)NC5=O)C6=O)CC4)CC3)CC2)CC1 (stereo not shown) for me?
OUT: > 90%

IN: Also check NC(=O)c1c(-c2ccc(Oc3ccccc3)cc2)nn2c1NCC[C@H]2C1CCN(C2CCN(C(=O)N3CCC(N4CCC(c5ccc6c(c5)CN(C5CCC(=O)NC5=O)C6=O)CC4)CC3)CC2)CC1 (stereo partly shown)
OUT: > 90%

IN: Also check NC(=O)c1c(-c2ccc(Oc3ccccc3)cc2)nn2c1NCC[C@H]2C1CCN(CC2CCN(CCN3CCN(c4ccc5c(c4)CN(C4CCC(=O)NC4=O)C5=O)CC3)CC2)CC1 (stereo partly shown)
OUT: > 75%

IN: Also check NC(=O)c1c(-c2ccc(Oc3ccccc3)cc2)nn2c1NCCC2C1CCN(C2CCN(CCN3CCC(c4ccc5c(c4)CN(C4CCC(=O)NC4=O)C5=O)CC3)CC2)CC1 (stereo not shown)
OUT: > 75%

IN: Also check NC(=O)c1c(-c2ccc(Oc3ccccc3)cc2)nn2c1NCCC2C1CCN(CC2CCN(CCN3CCN(c4ccc5c(c4)C(=O)N(C4CCC(=O)NC4=O)C5=O)CC3)CC2)CC1 (stereo not shown)
OUT: > 75%

====

Measured DC50 by item
# target_or_test_system: BTK (Homo sapiens)
# protocol_details: Degradation of BTK protein in Namalwa cells (Western blot; DC50, Dmax)
# settings: read-out: DC50 (BTK degradation); concentration giving 50% reduction of BTK expression level; cell line not given

Worked examples, 3 compounds total:
compound	value
Nc1ncnc2c1c(-c1ccc(Oc3ccccc3)cc1)nn2C1CCN(CCCN2CCC(CN3CCN(c4ccc(NC5CCC(=O)NC5=O)cc4)CC3)C2)CC1 (stereo not shown)	10 to 50 nM
NC(=O)c1c(-c2ccc(Oc3ccccc3)cc2)nn2c1NCC[C@H]2C1CCN(CC2CCN(C(=O)N3CCN(Cc4ccc5c(c4)CN(C4CCC(=O)NC4=O)C5=O)CC3)CC2)CC1 (stereo partly shown)	> 50 nM
Nc1ncnc2c1c(-c1ccc(Oc3ccccc3)cc1)nn2C1CCN(C[C@H]2CCN(CC3CCN(c4ccc5c(c4)CN(C4CCC(=O)NC4=O)C5=O)CC3)C2)CC1 (stereo partly shown) [Compound 446a]	10 to 50 nM

Now look at this one.
IN: Can you look up the measured DC50 of NC(=O)c1c(-c2ccc(Oc3ccccc3)cc2)nn2c1NCC[C@H]2C1CCN(CC2CCN(C(=O)N3CCC(N4CCN(c5ccc6c(c5)CN(C5CCC(=O)NC5=O)C6=O)CC4)CC3)CC2)CC1 (stereo partly shown) for me?
OUT: < 10 nM

====

# target_or_test_system: BTK (Homo sapiens, UniProt Q06187)
# protocol_details: Degradation of BTK protein in Namalwa cells (Western blot; DC50, Dmax)
# settings: read-out: DC50 (BTK degradation); concentration giving 50% reduction of BTK expression level; cell line not given
Measured DC50 by item

Worked examples, 5 compounds total:
compound	target_or_test_system	DC50
Nc1ncnc2c1c(-c1ccc(Oc3ccccc3)cc1)nn2C1CCN(C[C@@H]2CCN(CC3CCN(c4ccc5c(c4)CN(C4CCC(=O)NC4=O)C5=O)CC3)C2)CC1 (some centres unmarked) [Compound 446b]	BTK (Homo sapiens, UniProt Q06187)	10 to 50 nM
Nc1ncnc2c1c(-c1ccc(Oc3ccccc3)cc1)nn2C1CCN(CCOCCOCCN2CCC(c3ccc4c(c3)CN(C3CCC(=O)NC3=O)C4=O)CC2)CC1 (centres unmarked) [Compound 419]	BTK (Homo sapiens, UniProt Q06187)	< 10 nM
NC1=NC=NC2C1C(c1ccc(Oc3ccccc3)cc1)=NN2C1CCN(C(=O)N2CCN(C3CN(c4ccc5c(c4)CN(C4CCC(=O)NC4=O)C5=O)C3)CC2)CC1 (centres unmarked) [Compound 504]	BTK (Homo sapiens, UniProt Q06187)	< 10 nM
Nc1ncnc2c1c(-c1ccc(Oc3ccccc3)cc1)nn2C1CCN(CC2CCN(CC3CN(c4ccc5c(c4)C(=O)N(C4CCC(=O)NC4=O)C5=O)C3)CC2)CC1 (centres unmarked) [Compound 429]	BTK (Homo sapiens, UniProt Q06187)	10 to 50 nM
Nc1ncnc2c1c(-c1ccc(Oc3ccccc3)cc1)nn2C1CCN(C2CCN(CC3CN(c4ccc5c(c4)C(=O)N(C4CCC(=O)NC4=O)C5=O)C3)C2)CC1 (centres unmarked) [Compound 425]	BTK (Homo sapiens, UniProt Q06187)	10 to 50 nM

IN: Value wanted: DC50 (BTK (Homo sapiens, UniProt Q06187)) of entry Nc1ncnc2c1c(-c1ccc(Oc3ccccc3)cc1)nn2C1CCN(CCN2CCC(N3CCN(c4ccc5c(c4)C(=O)N(C4CCC(=O)NC4=O)C5=O)CC3)C2)CC1 (centres unmarked) [Compound 459]
OUT: < 10 nM

IN: Also check Nc1ncnc2c1c(-c1ccc(Oc3ccccc3)cc1)nn2C1CCN(C[C@H]2CCN(C[C@@H]3CCN(c4ccc5c(c4)C(=O)N(C4CCC(=O)NC4=O)C5=O)C3)C2)CC1 (some centres unmarked) [Compound 447b]
OUT: < 10 nM

IN: Also check Nc1ncnc2c1c(-c1ccc(Oc3ccccc3)cc1)nn2C1CCN(CC2CCN(CC3CN(c4ccc5c(c4)C(=O)N(C4CCC(=O)NC4=O)C5=O)C3)C2)CC1 (centres unmarked) [Compound 423]
OUT: 10 to 50 nM

IN: Also check Nc1ncnc2c1c(-c1ccc(Oc3ccccc3)cc1)nn2C1CCN(CCN2CC(CN3CCN(c4ccc5c(c4)CN(C4CCC(=O)NC4=O)C5=O)CC3)C2)CC1 (centres unmarked) [Compound 462]
OUT: 10 to 50 nM

IN: Also check Nc1ncnc2c1c(-c1ccc(Oc3ccccc3)cc1)nn2C1CCN(CCN2CCC(CSc3ccc4c(c3)C(=O)N(C3CCC(=O)NC3=O)C4=O)C2)CC1 (centres unmarked) [Compound 473]
OUT: 10 to 50 nM

IN: Also check Nc1ncnc2c1c(-c1ccc(Oc3ccccc3)cc1)nn2C1CCN(CC2CCN(CC3CCN(c4ccc5c(c4)CN(C4CCC(=O)NC4=O)C5=O)CC3)C2)CC1 (centres unmarked) [Compound 446]
OUT: 10 to 50 nM
